target: CDK1/Cyclin B1 (Homo sapiens); settings: 12-point dose response, singlicate, at Km for ATP
Sequence (P06493 whole entry): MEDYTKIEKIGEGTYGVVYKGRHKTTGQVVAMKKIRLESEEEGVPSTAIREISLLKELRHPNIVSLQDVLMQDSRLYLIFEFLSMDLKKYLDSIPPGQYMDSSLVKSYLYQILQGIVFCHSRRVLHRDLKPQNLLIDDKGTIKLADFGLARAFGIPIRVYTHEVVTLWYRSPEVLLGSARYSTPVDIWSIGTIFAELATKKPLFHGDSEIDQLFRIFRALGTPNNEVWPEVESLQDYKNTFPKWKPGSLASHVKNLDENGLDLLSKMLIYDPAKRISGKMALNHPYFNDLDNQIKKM
Sequence (P14635 whole entry partner): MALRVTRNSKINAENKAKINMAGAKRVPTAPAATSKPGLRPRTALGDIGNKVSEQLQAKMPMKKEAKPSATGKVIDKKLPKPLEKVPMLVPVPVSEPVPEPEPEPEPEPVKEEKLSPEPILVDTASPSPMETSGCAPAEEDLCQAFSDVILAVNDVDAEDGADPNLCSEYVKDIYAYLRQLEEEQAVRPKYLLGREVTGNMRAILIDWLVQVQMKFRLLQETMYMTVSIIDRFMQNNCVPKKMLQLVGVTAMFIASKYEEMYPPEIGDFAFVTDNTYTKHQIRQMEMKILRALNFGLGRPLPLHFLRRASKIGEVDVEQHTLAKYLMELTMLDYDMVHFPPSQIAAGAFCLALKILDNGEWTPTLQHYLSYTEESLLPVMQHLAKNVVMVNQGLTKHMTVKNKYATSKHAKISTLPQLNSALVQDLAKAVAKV
assay.readout: pIC50
One number for each entry, as −log10 of the molar value.

Prompt: Specify pIC50 for CC(C)N1CCN(c2ccc(Nc3ncc4cc5n(c4n3)C3(CCCCC3)CNC5=O)nc2)CC1.Cl.Cl and stop.
Response: 5.62

====

test system: SupT1; assay: Cell proliferation, CellTiter-Glo; format: cell-based; settings: Homo sapiens, SUP-T1, 144 h; SupT1, Lymphoma, RB +; four or six days; read-out: G1T38 EC50, growth inhibition
assay.readout: pEC50
Give bare numbers, as −log10 of the molar value.

Prompt: Specify pEC50 for CC(C)N1CCN(c2ccc(Nc3ncc4cc5n(c4n3)C3(CCCCC3)CNC5=O)nc2)CC1.Cl.Cl [G1T38] and stop.
Response: 7.24
